Reference for the values: the Biogen ADME set (Fang et al. 2023)

REPORTED_ENDPOINT: MDR1-MDCK efflux ratio
Give bare numbers.

So what does the record say about MDR1-MDCK efflux ratio for Cc1ccc(CC(=O)NCc2cccc(C(=O)Nc3ccccc3)c2)cc1 ?
1.52

I'm hoping you can list MDR1-MDCK efflux ratio for every compound here, please.
1. Cc1nc2ccccn2c1CC(=O)NCCCSc1ccccc1
2. Cc1cc2occ(CC(=O)NC3CCN(C)CC3)c2cc1C(C)C

[26.2, 6.32]

I'm hoping you can list MDR1-MDCK efflux ratio for every compound here, please.
1. CC(C)(C)c1cc(NC(=O)c2cccc3cn[nH]c23)[nH]n1
2. Cn1ncc2c1CCc1sc(NC(=O)c3cccnc3)nc1-2
3. Cc1ncsc1-c1cncc(CC2CCCN(C)C2)n1 (stereo not given)
4. Cc1nnc(NC(=O)c2ccccc2-c2ccc(C(F)(F)F)cc2)s1

1.55
1.58
0.97
1.45

I'm hoping you can list MDR1-MDCK efflux ratio for every compound here, please.
1. CCCS(=O)(=O)N1CCCC(C(=O)N2CCc3ccccc3C2)C1 (stereo not given)
2. C[C@H]1Oc2cc(cnc2N)-c2c(nn(C)c2C#N)CN(C)C(=O)c2ccc(F)cc21
3. COc1cccc(CC(=O)Nc2ccc3nc(C)sc3c2)c1

[1.87, 14.5, 0.818]

I'm hoping you can list MDR1-MDCK efflux ratio for every compound here, please.
1. CS(=O)(=O)NC1CCCN(c2nc3ccccc3o2)C1 (stereo not given)
2. N#Cc1ccc(CNc2cnc3ccccc3c2)o1
3. O=c1ccc(C2CC2)nn1CC1CN(CC2(O)CCCC2)C1
4. Clc1ccc2c(NCCN3CCOCC3)ncnc2c1
5. N#Cc1ccc(N2CCc3c(ncn3C3CC3)C2)nc1
6. CC1CCN(C(=O)c2n[nH]c3ccccc23)CC1

1. 4.21
2. 0.343
3. 12.5
4. 1.37
5. 0.877
6. 0.561
